# SYSTEM_UNDER_TEST: T1, recombinant soluble human GARP-TGFβ1 complex (human, UniProt Q14392 20-628; P01137 30-390)
# T1 construct: co-expressed in HEK293E, purified by the Strep-Tag; TGFβ consists of LAP and mature TGFβ; also called shGARP-TGFβ; rhGARP-TGFβ
# ASSAY_EXPLANATION: SPR (Biacore), hGARP-TGFβ1 immobilised
VALUE_TYPE: fold improvement of kd (reference LHG-10-D)
Write your answer as a measured quantity: the number, then the unit.

**Query** What value of measured fold improvement of kd (reference LHG-10-D) is listed for LHG-10.5-D (antibody, human IgG1, V domains shown) VH: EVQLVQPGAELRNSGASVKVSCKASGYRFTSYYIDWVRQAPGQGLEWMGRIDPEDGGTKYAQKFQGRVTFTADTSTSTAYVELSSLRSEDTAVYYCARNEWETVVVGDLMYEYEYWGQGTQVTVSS VL: DIQMTQSPSSLSPSLGDRVTITCQASQTISSFLAWYHQKPGQPPKLLIYRASIPQTGVPSRFSGSGSGTSFTLTIGGLEAEDAGTYYCQQYVSAPPTFGQGTKVELK ?
**Result** 2.4 fold
